Tested on: hTERT-HMEC;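 further: secreted proteins added to cultured cells, EdU pulse at the end, nuclei found by Hoechst imaging, EdU status from nuclear versus surrounding ring intensity ratio, PBS as neutral control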
Test: percentage of EdU-negative (G0-arrested) nuclei per well, 72 h; higher = more G0 arrest
Conditions: protein concentration 0.3125 µM; reference: sequence is the full UniProt precursor, the tested protein was the secreted form or ectodomain
Quick reference for percentage of EdU-negative among some sequences
Number only, in %; omit the unit.

MKSGLWYFFLFCLRIKVLTGEINGSANYEMFIFHNGGVQILCKYPDIVQQFKMQLLKGGQILCDLTKTKGSGNTVSIKSLKFCHSQLSNNSVSFFLYNLDHSHANYYFCNLSIFDPPPFKVTLTGGYLHIYESQLCCQLKFWLPIGCAAFVVVCILGCILICWLTKKKYSSSVHDPNGEYMFMRAVNTAKKSRLTDVTL [Q9Y6W8] :: 4.32
MDSDETGFEHSGLWVSVLAGLLLGACQAHPIPDSSPLLQFGGQVRQRYLYTDDAQQTEAHLEIREDGTVGGAADQSPESLLQLKALKPGVIQILGVKTSRFLCQRPDGALYGSLHFDPEACSFRELLLEDGYNVYQSEAHGLPLHLPGNKSPHRDPAPRGPARFLPLPGLPPALPEPPGILAPQPPDVGSSDPLSMVGPSQGRSPSYAS [Q9NSA1] :: 5.63
MAGPATQSPMKLMALQLLLWHSALWTVQEATPLGPASSLPQSFLLKCLEQVRKIQGDGAALQEKLVSECATYKLCHPEELVLLGHSLGIPWAPLSSCPSQALQLAGCLSQLHSGLFLYQGLLQALEGISPELGPTLDTLQLDVADFATTIWQQMEELGMAPALQPTQGAMPAFASAFQRRAGGVLVASHLQSFLEVSYRVLRHLAQP :: 9.86

Now for another entry.
(Q) Note percentage of EdU-negative for the sequence shown: MAPARAGFCPLLLLLLLGLWVAEIPVSAKPKGMTSSQWFKIQHMQPSPQACNSAMKNINKHTKRCKDLNTFLHEPFSSVAATCQTPKIACKNGDKNCHQSHGAVSLTMCKLTSGKHPNCRYKEKRQNKSYVVACKPPQKKDSQQFHLVPVHLDRVL [Q9H1E1]
(A) 6.66

src = the supplement of paper PMC11316812
